# MEASURED_ON: Cholinesterase (Homo sapiens, UniProt P06276)
# Sequence (P06276 whole entry): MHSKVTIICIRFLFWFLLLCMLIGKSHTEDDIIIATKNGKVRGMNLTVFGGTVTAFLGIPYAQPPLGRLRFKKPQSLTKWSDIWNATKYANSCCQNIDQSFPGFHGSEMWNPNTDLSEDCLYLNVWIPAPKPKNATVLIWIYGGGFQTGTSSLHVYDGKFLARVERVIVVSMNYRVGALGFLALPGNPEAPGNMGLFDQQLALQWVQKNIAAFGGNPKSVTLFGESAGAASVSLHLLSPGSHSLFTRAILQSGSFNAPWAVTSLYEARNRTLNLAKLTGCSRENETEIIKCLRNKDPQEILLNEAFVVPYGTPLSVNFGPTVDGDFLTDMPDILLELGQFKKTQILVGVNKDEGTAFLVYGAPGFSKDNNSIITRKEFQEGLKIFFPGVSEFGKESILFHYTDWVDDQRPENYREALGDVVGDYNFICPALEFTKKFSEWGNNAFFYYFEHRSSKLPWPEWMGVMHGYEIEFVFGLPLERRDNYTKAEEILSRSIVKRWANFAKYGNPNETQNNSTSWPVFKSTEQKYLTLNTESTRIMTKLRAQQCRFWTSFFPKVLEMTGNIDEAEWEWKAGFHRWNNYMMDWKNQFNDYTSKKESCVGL
The following molecules are shown together with reported IC50 values.
PARAMETER_MEASURED: IC50 (µM)

[[record]]
molecule = "CCOC(=O)C1=C(c2ccccc2)Oc2nc3c(c(N)c2C1c1cccc([N+](=O)[O-])c1)CCCC3 (centres undefined)"
parameter_measured = "IC50"
recorded_measurement = 40.9

[[record]]
molecule = "CCOC(=O)C1=C(c2ccccc2)Oc2nc3c(c(N)c2C1c1ccc(F)cc1)CCCC3 (centres undefined)"
parameter_measured = "IC50"
recorded_measurement = 6.1

[[record]]
molecule = "CCOC(=O)C1=C(c2ccccc2)Oc2nc3c(c(N)c2C1c1ccc(C)cc1)CCCC3 (centres undefined)"
parameter_measured = "IC50"
recorded_measurement = 54.1

[[record]]
molecule = "CCOC(=O)C1=C(c2ccccc2)Oc2nc3c(c(N)c2C1c1ccc(Cl)cc1)CCCC3 (centres undefined)"
parameter_measured = "IC50"
recorded_measurement = 17.6

[[record]]
molecule = "CCOC(=O)C1=C(c2ccccc2)Oc2nc3c(c(N)c2C1c1ccc(OC)cc1)CCCC3 (centres undefined)"
parameter_measured = "IC50"
recorded_measurement = 5.76

[[record]]
molecule = "CCOC(=O)C1=C(c2ccccc2)Oc2nc3c(c(N)c2C1c1ccccc1)CCCC3 (centres undefined)"
parameter_measured = "IC50"
recorded_measurement = 5.49

[[record]]
molecule = "CCOC(=O)C1=C(c2ccccc2)Oc2nc3c(c(N)c2C1c1cccc(Cl)c1)CCCC3 (centres undefined)"
parameter_measured = "IC50"
recorded_measurement = 3.1

[[record]]
molecule = "CCOC(=O)C1=C(c2ccccc2)Oc2nc3c(c(N)c2C1c1ccc(Br)cc1)CCCC3 (centres undefined)"
parameter_measured = "IC50"
recorded_measurement = 74.2

[[record]]
molecule = "CCOC(=O)C1=C(c2ccccc2)Oc2nc3c(c(N)c2C1c1cccc(Br)c1)CCCC3 (centres undefined)"
parameter_measured = "IC50"
recorded_measurement = 1.35


---

# MEASURED_ON: Acetylcholinesterase (Electrophorus electricus)
# Sequence (O42275 whole entry): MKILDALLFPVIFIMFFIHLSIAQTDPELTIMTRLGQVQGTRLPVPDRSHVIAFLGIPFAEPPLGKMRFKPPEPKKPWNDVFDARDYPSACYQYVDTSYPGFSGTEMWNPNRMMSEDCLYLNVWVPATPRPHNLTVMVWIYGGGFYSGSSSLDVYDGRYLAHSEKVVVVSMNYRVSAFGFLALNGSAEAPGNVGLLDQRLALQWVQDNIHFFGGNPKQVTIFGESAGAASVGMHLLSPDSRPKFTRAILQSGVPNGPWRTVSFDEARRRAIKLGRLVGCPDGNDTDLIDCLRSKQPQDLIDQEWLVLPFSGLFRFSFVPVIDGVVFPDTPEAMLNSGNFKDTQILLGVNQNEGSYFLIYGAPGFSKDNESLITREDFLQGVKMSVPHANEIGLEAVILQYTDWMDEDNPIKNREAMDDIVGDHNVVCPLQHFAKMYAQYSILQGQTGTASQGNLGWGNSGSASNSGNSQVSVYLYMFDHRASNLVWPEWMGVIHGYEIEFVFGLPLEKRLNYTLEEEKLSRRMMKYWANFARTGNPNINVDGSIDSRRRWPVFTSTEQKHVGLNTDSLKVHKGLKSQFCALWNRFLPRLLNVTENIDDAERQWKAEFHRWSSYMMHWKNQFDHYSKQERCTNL
pKi: −log10 of the molar value.
PARAMETER_MEASURED: pKi

[[record]]
compound = "CCOC(=O)C1=C(c2ccccc2)Oc2nc3c(c(N)c2C1c1cccc(Br)c1)CCCC3 (stereo unspecified)"
parameter_measured = "pKi"
recorded_measurement = 7.31


---

# System: HepG2
# METHOD_SUMMARY: cells
# CONDITION_LABEL: Homo sapiens, HepG2, 24 h
# Description: Cytotoxicity against human HepG2 cells assessed as reduction in cell viability after 24 hrs by MTT assay
PARAMETER_MEASURED: IC50 (µg/mL)

[[record]]
molecule = "CCOC(=O)C1=C(c2ccccc2)Oc2nc3c(c(N)c2C1c1cccc([N+](=O)[O-])c1)CCCC3 (stereo not given)"
reported_relation = ">"
recorded_measurement = 100

[[record]]
molecule = "CCOC(=O)C1=C(c2ccccc2)Oc2nc3c(c(N)c2C1c1ccccc1Cl)CCCC3 (stereo not given)"
reported_relation = ">"
recorded_measurement = 100

[[record]]
molecule = "CCOC(=O)C1=C(c2ccccc2)Oc2nc3c(c(N)c2C1c1cccc(Br)c1)CCCC3 (stereo not given)"
reported_relation = "="
recorded_measurement = 72.8

[[record]]
molecule = "CCOC(=O)C1=C(c2ccccc2)Oc2nc3c(c(N)c2C1c1cccc(Cl)c1)CCCC3 (stereo not given)"
reported_relation = "="
recorded_measurement = 50.4

[[record]]
molecule = "CCOC(=O)C1=C(c2ccccc2)Oc2nc3c(c(N)c2C1c1ccccc1Br)CCCC3 (stereo not given)"
reported_relation = ">"
recorded_measurement = 100


---

pIC50: −log10 of the molar value.
What follows is a record of pIC50 for Acetylcholinesterase (Electrophorus electricus).
PARAMETER_MEASURED: pIC50

[[record]]
compound = "CCOC(=O)C1=C(c2ccccc2)Oc2nc3c(c(N)c2C1c1ccc(OC)cc1)CCCC3 (stereo unspecified)"
recorded_measurement = 6.32

[[record]]
compound = "CCOC(=O)C1=C(c2ccccc2)Oc2nc3c(c(N)c2C1c1ccc(F)cc1)CCCC3 (stereo unspecified)"
recorded_measurement = 6.39

[[record]]
compound = "CCOC(=O)C1=C(c2ccccc2)Oc2nc3c(c(N)c2C1c1ccc(Br)cc1)CCCC3 (stereo unspecified)"
recorded_measurement = 5.21

[[record]]
compound = "CCOC(=O)C1=C(c2ccccc2)Oc2nc3c(c(N)c2C1c1cccc(F)c1)CCCC3 (stereo unspecified)"
recorded_measurement = 6.11

[[record]]
compound = "CCOC(=O)C1=C(c2ccccc2)Oc2nc3c(c(N)c2C1c1cccc(Cl)c1)CCCC3 (stereo unspecified)"
recorded_measurement = 6.64

[[record]]
compound = "CCOC(=O)C1=C(c2ccccc2)Oc2nc3c(c(N)c2C1c1cccc(Br)c1)CCCC3 (stereo unspecified)"
recorded_measurement = 7.16

[[record]]
compound = "CCOC(=O)C1=C(c2ccccc2)Oc2nc3c(c(N)c2C1c1ccc(Cl)cc1Cl)CCCC3 (stereo unspecified)"
recorded_measurement = 5.79

[[record]]
compound = "CCOC(=O)C1=C(c2ccccc2)Oc2nc3c(c(N)c2C1c1ccc(Cl)cc1)CCCC3 (stereo unspecified)"
recorded_measurement = 5.96

[[record]]
compound = "CCOC(=O)C1=C(c2ccccc2)Oc2nc3c(c(N)c2C1c1ccccc1F)CCCC3 (stereo unspecified)"
recorded_measurement = 6.43

[[record]]
compound = "CCOC(=O)C1=C(c2ccccc2)Oc2nc3c(c(N)c2C1c1ccccc1Br)CCCC3 (stereo unspecified)"
recorded_measurement = 6.93

[[record]]
compound = "CCOC(=O)C1=C(c2ccccc2)Oc2nc3c(c(N)c2C1c1ccc(C)cc1)CCCC3 (stereo unspecified)"
recorded_measurement = 5.38

[[record]]
compound = "CCOC(=O)C1=C(c2ccccc2)Oc2nc3c(c(N)c2C1c1ccccc1Cl)CCCC3 (stereo unspecified)"
recorded_measurement = 6.82

[[record]]
compound = "CCOC(=O)C1=C(c2ccccc2)Oc2nc3c(c(N)c2C1c1ccccc1)CCCC3 (stereo unspecified)"
recorded_measurement = 6.37

[[record]]
compound = "CCOC(=O)C1=C(c2ccccc2)Oc2nc3c(c(N)c2C1c1ccc([N+](=O)[O-])cc1)CCCC3 (stereo unspecified)"
recorded_measurement = 6.23

[[record]]
compound = "CCOC(=O)C1=C(c2ccccc2)Oc2nc3c(c(N)c2C1c1cccc(OC)c1)CCCC3 (stereo unspecified)"
recorded_measurement = 6.29

[[record]]
compound = "CCOC(=O)C1=C(c2ccccc2)Oc2nc3c(c(N)c2C1c1cccc([N+](=O)[O-])c1)CCCC3 (stereo unspecified)"
recorded_measurement = 5.56


---

pIC50: −log10 of the molar value.
# Cholinesterase (Homo sapiens, UniProt P06276): pIC50 values follow
PARAMETER_MEASURED: pIC50

[[record]]
molecule = "CCOC(=O)C1=C(c2ccccc2)Oc2nc3c(c(N)c2C1c1ccccc1Cl)CCCC3 (configuration not stated)"
parameter_measured = "pIC50"
recorded_measurement = 5.67

[[record]]
molecule = "CCOC(=O)C1=C(c2ccccc2)Oc2nc3c(c(N)c2C1c1ccccc1Br)CCCC3 (configuration not stated)"
parameter_measured = "pIC50"
recorded_measurement = 5.56

[[record]]
molecule = "CCOC(=O)C1=C(c2ccccc2)Oc2nc3c(c(N)c2C1c1ccc(Cl)cc1Cl)CCCC3 (configuration not stated)"
parameter_measured = "pIC50"
recorded_measurement = 4.64

[[record]]
molecule = "CCOC(=O)C1=C(c2ccccc2)Oc2nc3c(c(N)c2C1c1ccccc1F)CCCC3 (configuration not stated)"
parameter_measured = "pIC50"
recorded_measurement = 5.44

[[record]]
molecule = "CCOC(=O)C1=C(c2ccccc2)Oc2nc3c(c(N)c2C1c1ccc([N+](=O)[O-])cc1)CCCC3 (configuration not stated)"
parameter_measured = "pIC50"
recorded_measurement = 5.00

[[record]]
molecule = "CCOC(=O)C1=C(c2ccccc2)Oc2nc3c(c(N)c2C1c1cccc(OC)c1)CCCC3 (configuration not stated)"
parameter_measured = "pIC50"
recorded_measurement = 5.15

[[record]]
molecule = "CCOC(=O)C1=C(c2ccccc2)Oc2nc3c(c(N)c2C1c1cccc(F)c1)CCCC3 (configuration not stated)"
parameter_measured = "pIC50"
recorded_measurement = 4.93

